Target: human EGFR exon 20 insertion ASV (V769_D770insASV) (Homo sapiens, UniProt P00533, INS769ASV)
Construct: expressed in transfected cells; host or cells: Ba/F3 (murine pro-B) cells transduced with lentivirus from pLVX-IRES puro
Sequence (P00533 with tags, fused parts or gaps INS769ASV): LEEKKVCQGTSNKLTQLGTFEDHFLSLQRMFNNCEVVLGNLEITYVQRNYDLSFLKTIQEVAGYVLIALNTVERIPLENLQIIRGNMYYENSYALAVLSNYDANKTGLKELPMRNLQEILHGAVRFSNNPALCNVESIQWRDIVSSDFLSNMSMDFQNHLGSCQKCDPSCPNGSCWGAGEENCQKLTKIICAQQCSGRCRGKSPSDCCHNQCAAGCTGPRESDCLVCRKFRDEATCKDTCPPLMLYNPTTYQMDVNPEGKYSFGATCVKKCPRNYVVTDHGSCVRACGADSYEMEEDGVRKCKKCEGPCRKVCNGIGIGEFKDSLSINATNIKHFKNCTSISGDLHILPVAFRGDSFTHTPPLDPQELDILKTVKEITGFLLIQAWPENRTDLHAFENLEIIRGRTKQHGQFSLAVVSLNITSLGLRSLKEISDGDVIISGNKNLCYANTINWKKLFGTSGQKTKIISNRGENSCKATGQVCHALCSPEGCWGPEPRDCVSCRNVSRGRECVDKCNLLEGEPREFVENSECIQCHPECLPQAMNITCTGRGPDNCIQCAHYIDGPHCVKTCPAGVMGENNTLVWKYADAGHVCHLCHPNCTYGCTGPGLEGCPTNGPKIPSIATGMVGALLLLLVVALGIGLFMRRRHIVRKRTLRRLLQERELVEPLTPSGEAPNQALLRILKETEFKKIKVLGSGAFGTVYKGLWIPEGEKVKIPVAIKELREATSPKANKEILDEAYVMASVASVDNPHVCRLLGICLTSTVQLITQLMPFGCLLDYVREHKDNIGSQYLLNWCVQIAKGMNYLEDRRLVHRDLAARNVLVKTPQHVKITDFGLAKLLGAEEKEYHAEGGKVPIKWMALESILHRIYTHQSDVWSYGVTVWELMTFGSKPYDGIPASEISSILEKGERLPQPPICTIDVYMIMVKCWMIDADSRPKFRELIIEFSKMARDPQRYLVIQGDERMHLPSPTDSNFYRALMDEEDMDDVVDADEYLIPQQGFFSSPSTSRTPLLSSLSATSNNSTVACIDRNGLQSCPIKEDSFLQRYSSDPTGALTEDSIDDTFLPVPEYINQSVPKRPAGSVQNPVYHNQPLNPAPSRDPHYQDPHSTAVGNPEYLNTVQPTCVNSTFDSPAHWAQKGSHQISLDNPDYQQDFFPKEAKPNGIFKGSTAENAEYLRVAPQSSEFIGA
Test: Ba/F3-EGFR-Exon20-ASV cell anti-proliferative assay (CellTiter 96 MTS, 72 h)
Type: cell-based
Details: Ba/F3-EGFR-Exon20-ASV cells
pIC50: −log10 of the molar value.
Below, each of the compounds is paired with its reported pIC50 value.

Q. Using the record for C=CC(=O)Nc1cc(Nc2ncc(C(=O)OC)c(-c3cn4c5c(cccc35)CCC4)n2)c(OC)cc1N(C)CC1CCCN1C (stereo not drawn) [Example 89] , report its pIC50.
A. > 7.00

Further cases:
Q. Using the record for COc1cc(F)c(NC(=O)/C=C/CN(C)C)cc1Nc1ncc(Cl)c(-c2cn3c4c(cccc24)OCC3)n1 [Example 82] , report its pIC50.
A. 6.00 to 6.30

Q. Using the record for C=CC(=O)Nc1cc(Nc2ncc(-c3nnco3)c(-c3cn4c5c(cccc35)CCC4)n2)c(OC)cc1N(C)CCN(C)C [Example 71] , report its pIC50.
A. > 7.00

Q. Using the record for C=CC(=O)Nc1cc(Nc2ncc(C#N)c(-c3cn4c5c(cccc35)CCC4)n2)c(OC)cc1N(C)CCN(C)C(C)C [Example 26] , report its pIC50.
A. > 7.00

Q. Using the record for C=CC(=O)Nc1cc(Nc2ncc(SCCO)c(-c3cn4c5c(cccc35)CCC4)n2)c(OC)cc1N(C)CCN(C)C [Example 58] , report its pIC50.
A. > 7.00

Q. Using the record for C=CC(=O)Nc1cc(Nc2ncc(-c3cc(C)nn3C)c(-c3cn4c5c(cccc35)CCC4)n2)c(OC)cc1N(C)CCN(C)C [Example 101] , report its pIC50.
A. > 7.00

Q. Using the record for C=CC(=O)Nc1cc(Nc2ncc(C(=O)OC)c(-c3cn4c5c(cccc35)CCC4)n2)c(OC)cc1N(C)CCN(C)C [Example 44] , report its pIC50.
A. > 7.00

Q. Using the record for C=CC(=O)Nc1cc(Nc2ncc(/C=C\C#N)c(-c3cn4c5c(cccc35)CCC4)n2)c(OC)cc1N(C)CCN(C)C [Example 43] , report its pIC50.
A. > 7.00

Q. Using the record for C=CC(=O)Nc1cc(Nc2nccc(-c3c(N4CC[C@@H](O)C4)n4c5c(cccc35)CCC4)n2)c(OC)cc1N(C)CCN(C)C [Example 74] , report its pIC50.
A. > 7.00

Q. Using the record for C=CC(=O)Nc1cc(Nc2ncc(C#N)c(-c3cn4c5c(cccc35)CCC4)n2)c(OC)cc1N(C)CCN(C)C [Example 14] , report its pIC50.
A. > 7.00

Q. Using the record for C=CC(=O)Nc1cc(Nc2ncc(-c3ccnn3C)c(-c3cn4c5c(cccc35)CCC4)n2)c(OC)cc1N(C)CCN(C)C [Example 53] , report its pIC50.
A. > 7.00

Q. Using the record for C=CC(=O)Nc1cc(Nc2ncc(-c3ncnn3C)c(-c3cn4c5c(cccc35)CCC4)n2)c(OC)cc1N(C)CCN(C)C [Example 111] , report its pIC50.
A. > 7.00

Q. Using the record for C=CC(=O)Nc1cc(Nc2ncc(CCP(C)(C)=O)c(-c3cn4c5c(cccc35)CCC4)n2)c(OC)cc1N(C)CCN(C)C [Example 96] , report its pIC50.
A. < 6.00

Q. Using the record for C=CC(=O)Nc1cc(Nc2nccc(-c3c(-c4ncccn4)n4c5c(cccc35)CCC4)n2)c(OC)cc1N(C)CCN(C)C [Example 109] , report its pIC50.
A. < 6.00

Q. Using the record for C=CC(=O)Nc1cc(Nc2nccc(-c3c(N4CCC(F)C4)n4c5c(cccc35)CCC4)n2)c(OC)cc1N(C)CCN(C)C (stereo not drawn) [Example 92] , report its pIC50.
A. > 7.00

Q. Using the record for C=CC(=O)Nc1cc(Nc2ncc(C#N)c(-c3cn4c5c(cccc35)N(C)C(=O)C4)n2)c(OC)cc1N1CC[C@@H](N(C)C)C1 [Example 55] , report its pIC50.
A. 6.30 to 7.00
